# test_target: Cholecystokinin receptor type A (Rattus norvegicus)
# Sequence (P30551 whole entry): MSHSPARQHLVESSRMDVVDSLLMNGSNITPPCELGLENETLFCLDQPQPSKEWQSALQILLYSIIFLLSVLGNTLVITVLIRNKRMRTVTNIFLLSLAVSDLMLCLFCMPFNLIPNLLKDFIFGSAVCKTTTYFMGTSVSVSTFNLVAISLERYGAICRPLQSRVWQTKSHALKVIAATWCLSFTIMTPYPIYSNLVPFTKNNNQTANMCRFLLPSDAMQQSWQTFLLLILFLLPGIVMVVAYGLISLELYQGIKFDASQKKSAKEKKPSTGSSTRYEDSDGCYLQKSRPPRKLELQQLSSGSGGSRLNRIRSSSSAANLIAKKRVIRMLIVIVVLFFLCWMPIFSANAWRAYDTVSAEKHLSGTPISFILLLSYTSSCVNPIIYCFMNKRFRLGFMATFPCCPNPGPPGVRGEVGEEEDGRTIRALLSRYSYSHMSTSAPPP
# assay: Binding affinity towards Cholecystokinin type A receptor from rat pancreas using [I125]-L-364,718 as the radioligand
I'd be grateful if you could share measured pIC50 for these entries.
Reminder that pIC50 is minus the log10 of a molar concentration.

Q. Returns the measured pIC50 for the input compound. Input: Cc1cccc(NC(=O)NC2N=C(c3cnccn3)c3ccccc3N(CC(=O)C(C)(C)C)C2=O)c1 (stereo not drawn)
A. 5.87

Q. Thanks! And Cc1cccc(NC(=O)NC2N=C(c3ccccc3)c3ccccc3N(CC(=O)C(C)(C)C)C2=O)c1 (stereo not drawn) ?
A. 6.95

Q. Thanks! And Cc1cccc(NC(=O)NC2N=C(c3cnc[nH]3)c3ccccc3N(CC(=O)C(C)(C)C)C2=O)c1 (stereo not drawn) ?
A. 6.63

Q. Thanks! And Cc1cccc(NC(=O)NC2N=C(c3ccccn3)c3ccccc3N(CC(=O)C(C)(C)C)C2=O)c1 (stereo not drawn) ?
A. 6.33

Q. Thanks! And Cc1cccc(NC(=O)NC2N=C(c3nccn3C)c3ccccc3N(CC(=O)C(C)(C)C)C2=O)c1 (stereo not drawn) ?
A. 6.07

Q. Thanks! And Cc1cccc(NC(=O)NC2N=C(c3ncc[nH]3)c3ccccc3N(CC(=O)C(C)(C)C)C2=O)c1 (stereo not drawn) ?
A. 5.58

Q. Thanks! And Cc1cccc(NC(=O)NC2N=C(c3ccccc3)c3ccccc3N(CC(=O)c3ccccc3C)C2=O)c1 (stereo not drawn) ?
A. 6.84
